experimental.target: CYP1A2 (Homo sapiens, UniProt P05177)
Sequence (P05177 whole entry): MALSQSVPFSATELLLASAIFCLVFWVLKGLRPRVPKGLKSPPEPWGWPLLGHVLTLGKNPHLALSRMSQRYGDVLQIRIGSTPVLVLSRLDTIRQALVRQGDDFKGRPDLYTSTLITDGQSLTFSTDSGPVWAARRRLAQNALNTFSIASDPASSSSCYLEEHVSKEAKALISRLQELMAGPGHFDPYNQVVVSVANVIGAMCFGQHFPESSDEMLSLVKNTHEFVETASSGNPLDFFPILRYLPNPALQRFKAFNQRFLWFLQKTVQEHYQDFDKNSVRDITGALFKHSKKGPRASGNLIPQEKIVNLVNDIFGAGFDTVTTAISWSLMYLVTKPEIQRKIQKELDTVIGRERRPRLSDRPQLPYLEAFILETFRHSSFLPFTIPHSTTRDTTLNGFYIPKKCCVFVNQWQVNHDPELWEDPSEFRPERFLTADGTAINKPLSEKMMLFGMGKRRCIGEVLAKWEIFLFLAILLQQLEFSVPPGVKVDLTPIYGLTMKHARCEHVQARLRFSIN
protocol.details: Time dependent inhibition of CYP1A2 in human liver microsomes at 10 uM by LC-MS/MS analysis relative to control
Format: ADME, Microsome
assay.context: read-out: TDI
result.type: inhibition at 10 µM (%)

| smi | result.type | quantitative.result |
| --- | --- | --- |
| CC(C)(C)[C@H](NC(=O)[C@H](Cc1ccncc1)NC(=O)CNC(=O)CC[C@H](NS(=O)(=O)c1ccc(Cl)c(C(F)(F)F)c1)C(=O)O)C(=O)Nc1ccc(C(=O)N2CCC(C(=O)N[C@H](CCCCN)C(=O)N3CC[C@H](N)C3)CC2)cc1 | inhibition at 10 µM | -5 |

* * *

protocol.details: Clearance in cynomolgus monkey at 1 mg/kg, iv
Format: ADME, organism-based, Macaca fascicularis
assay.context: in vivo
result.type: clearance (mL/min/kg)

| smi | quantitative.result |
| --- | --- |
| CC(C)(C)[C@H](NC(=O)[C@H](Cc1ccncc1)NC(=O)CNC(=O)CC[C@H](NS(=O)(=O)c1ccc(Cl)c(C(F)(F)F)c1)C(=O)O)C(=O)Nc1ccc(C(=O)N2CCC(C(=O)N[C@H](CCCCN)C(=O)N3CC[C@H](N)C3)CC2)cc1 | 0.918 |

* * *

experimental.target: CYP2C19 (Homo sapiens, UniProt P33261)
Sequence (P33261 whole entry): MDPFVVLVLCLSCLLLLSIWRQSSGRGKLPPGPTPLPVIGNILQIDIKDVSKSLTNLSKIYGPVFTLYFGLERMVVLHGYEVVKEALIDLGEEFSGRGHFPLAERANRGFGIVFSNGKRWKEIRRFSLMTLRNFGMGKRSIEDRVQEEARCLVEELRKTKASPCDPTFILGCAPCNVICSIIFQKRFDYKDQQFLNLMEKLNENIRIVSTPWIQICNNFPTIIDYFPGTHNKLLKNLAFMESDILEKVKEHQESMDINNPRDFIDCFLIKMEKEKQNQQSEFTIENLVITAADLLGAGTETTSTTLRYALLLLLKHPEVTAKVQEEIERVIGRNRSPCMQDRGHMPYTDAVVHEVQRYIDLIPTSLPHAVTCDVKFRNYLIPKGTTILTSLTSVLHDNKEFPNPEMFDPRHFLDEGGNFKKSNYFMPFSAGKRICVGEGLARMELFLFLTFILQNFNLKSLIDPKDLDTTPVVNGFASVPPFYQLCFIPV
protocol.details: Time dependent inhibition of CYP2C19 in human liver microsomes at 10 uM by LC-MS/MS analysis relative to control
Type: ADME, Microsome
assay.context: read-out: TDI
result.type: inhibition at 10 µM

| smi | result |
| --- | --- |
| CC(C)(C)[C@H](NC(=O)[C@H](Cc1ccncc1)NC(=O)CNC(=O)CC[C@H](NS(=O)(=O)c1ccc(Cl)c(C(F)(F)F)c1)C(=O)O)C(=O)Nc1ccc(C(=O)N2CCC(C(=O)N[C@H](CCCCN)C(=O)N3CC[C@H](N)C3)CC2)cc1 | 4.8% |

* * *

protocol.details: Fraction unbound in rat
Type: ADME

| smi | fraction unbound |
| --- | --- |
| CC(C)(C)[C@H](NC(=O)[C@H](Cc1ccncc1)NC(=O)CNC(=O)CC[C@H](NS(=O)(=O)c1ccc(Cl)c(C(F)(F)F)c1)C(=O)O)C(=O)Nc1ccc(C(=O)N2CCC(C(=O)N[C@H](CCCCN)C(=O)N3CC[C@H](N)C3)CC2)cc1 | 0.178 |

* * *

experimental.target: CYP1A2 (Homo sapiens, UniProt P05177)
protocol.details: Inhibition of CYP1A2 in human liver microsomes at 10 uM by LC-MS/MS analysis relative to control
Format: ADME, Microsome
result.type: inhibition at 10 µM (%)

| smi | result.type | quantitative.result |
| --- | --- | --- |
| CC(C)(C)[C@H](NC(=O)[C@H](Cc1ccncc1)NC(=O)CNC(=O)CC[C@H](NS(=O)(=O)c1ccc(Cl)c(C(F)(F)F)c1)C(=O)O)C(=O)Nc1ccc(C(=O)N2CCC(C(=O)N[C@H](CCCCN)C(=O)N3CC[C@H](N)C3)CC2)cc1 | inhibition at 10 µM | 3.2 |

* * *

protocol.details: Urinary excretion rate in rat at 1 mg/kg, iv
Assay type: ADME, organism-based
assay.context: urine, read-out: Activity
Starred links: 1 amine or outer side, 2 acyl side, 3 side chain; linkers in the order of their positions; H or OH if unused. Non-standard residues stand in square brackets, D forms with d. Residues, ends and D or L forms follow the SMILES beside them. *: point of attachment. Benzenesulfonyl(4-Cl,3-CF3) = O=S(=O)(c1ccc(Cl)c(C(F)(F)F)c1)*; γGlu = O=C(O)[C@H](CCC(=O)[*:2])N[*:1]; 4Pal = N[C@@H](Cc1ccncc1)C(=O)O; Tle = CC(C)(C)[C@H](N)C(=O)O; β3hP = O=C(O)C[C@@H]1CCCN1
result.type: dose excreted

| compound | result.type | result |
| --- | --- | --- |
| CC(C)(C)[C@H](NC(=O)[C@H](Cc1ccncc1)NC(=O)CNC(=O)CC[C@H](NS(=O)(=O)c1ccc(Cl)c(C(F)(F)F)c1)C(=O)O)C(=O)N1CCC[C@H]1CC(N)=O ({Benzenesulfonyl(4-Cl,3-CF3)-γGlu}-G[4Pal][Tle][β3hP]-NH2) | dose excreted | 5% |

* * *

protocol.details: Chemical stability of the compound in pH 4 aqueous solution assessed as degradation by measuring residual rate incubated for 24 hrs at 65 degC by HPLC analysis
Type: physicochemical
assay.context: read-out: Activity

| smi | units.of.measure | remaining at 24 h |
| --- | --- | --- |
| CC(C)(C)[C@H](NC(=O)[C@H](Cc1ccncc1)NC(=O)CNC(=O)CC[C@H](NS(=O)(=O)c1ccc(Cl)c(C(F)(F)F)c1)C(=O)O)C(=O)Nc1ccc(C(=O)N2CCN(C(=O)[C@@H](N)CCCN)CC2)cc1 | % | 88.6 |
| CC(C)(C)[C@H](NC(=O)[C@H](Cc1ccncc1)NC(=O)CNC(=O)CC[C@H](NS(=O)(=O)c1ccc(Cl)c(C(F)(F)F)c1)C(=O)O)C(=O)Nc1ccc(C(=O)NCC2(N)CCNCC2)cc1 | % | 95.6 |
| CN(C)CCCC[C@H](NC(=O)CCN)C(=O)N1CCN(C(=O)c2ccc(NC(=O)[C@@H](NC(=O)[C@H](Cc3ccncc3)NC(=O)CNC(=O)CC[C@H](NS(=O)(=O)c3ccc(Cl)c(C(F)(F)F)c3)C(=O)O)C(C)(C)C)cc2)CC1 | % | 100 |
| CC(C)(C)[C@H](NC(=O)[C@H](Cc1ccncc1)NC(=O)CNC(=O)CC[C@H](NS(=O)(=O)c1ccc(Cl)c(C(F)(F)F)c1)C(=O)O)C(=O)Nc1ccc(C(=O)N2CCC(C(=O)N[C@H](CCCCN)C(=O)N3C[C@@H](N)C[C@H]3C(N)=O)CC2)cc1 | % | 97 |
| CC(C)(C)[C@H](NC(=O)[C@H](Cc1ccncc1)NC(=O)CNC(=O)CC[C@H](NS(=O)(=O)c1ccc(Cl)c(C(F)(F)F)c1)C(=O)O)C(=O)Nc1ccc(C(=O)N2CCC(C(=O)N[C@H](CCCCN)C(=O)N3CC[C@H](N)C3)CC2)cc1 | % | 101 |
| CC(C)(C)[C@H](NC(=O)[C@H](Cc1ccncc1)NC(=O)CNC(=O)CC[C@H](NS(=O)(=O)c1ccc(Cl)c(C(F)(F)F)c1)C(=O)O)C(=O)Nc1ccc(C(=O)N2CCC(C(=O)N[C@H](CCCNC(=N)N)C(=O)NCCN)CC2)cc1 | % | 98.8 |
| CC(C)(C)[C@H](NC(=O)[C@H](Cc1ccncc1)NC(=O)CNC(=O)CC[C@H](NS(=O)(=O)c1ccc(Cl)c(C(F)(F)F)c1)C(=O)O)C(=O)Nc1ccc(C(=O)N2CCC(C(=O)N[C@H](CCCCN)C(=O)NCCN)CC2)cc1 | % | 99.6 |

* * *

experimental.target: CYP2D6 (Homo sapiens, UniProt P10635)
Sequence (P10635 whole entry): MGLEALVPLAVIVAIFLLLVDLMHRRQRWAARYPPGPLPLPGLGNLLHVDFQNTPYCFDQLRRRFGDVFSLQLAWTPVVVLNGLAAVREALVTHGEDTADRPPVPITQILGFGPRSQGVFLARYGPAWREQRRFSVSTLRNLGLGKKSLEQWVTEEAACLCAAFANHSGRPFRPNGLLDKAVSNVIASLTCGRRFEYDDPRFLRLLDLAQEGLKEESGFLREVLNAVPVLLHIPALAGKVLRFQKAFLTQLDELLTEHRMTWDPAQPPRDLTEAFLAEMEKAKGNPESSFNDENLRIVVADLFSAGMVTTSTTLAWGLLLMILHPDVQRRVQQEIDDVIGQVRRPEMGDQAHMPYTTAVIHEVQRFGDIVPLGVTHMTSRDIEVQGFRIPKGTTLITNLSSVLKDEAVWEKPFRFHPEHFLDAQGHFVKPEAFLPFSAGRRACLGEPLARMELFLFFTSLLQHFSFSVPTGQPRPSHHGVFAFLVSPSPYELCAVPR
protocol.details: Inhibition of CYP2D6 in human liver microsomes at 10 uM by LC-MS/MS analysis relative to control
Assay type: ADME, Microsome

| smi | experimental.target | inhibition at 10 µM, % |
| --- | --- | --- |
| CC(C)(C)[C@H](NC(=O)[C@H](Cc1ccncc1)NC(=O)CNC(=O)CC[C@H](NS(=O)(=O)c1ccc(Cl)c(C(F)(F)F)c1)C(=O)O)C(=O)Nc1ccc(C(=O)N2CCC(C(=O)N[C@H](CCCCN)C(=O)N3CC[C@H](N)C3)CC2)cc1 | CYP2D6 (Homo sapiens, UniProt P10635) | 6.4 |

* * *

protocol.details: Volume of distribution at steady state in cynomolgus monkey at 0.25 mg/kg, iv
Format: ADME, organism-based, Macaca fascicularis
assay.context: in vivo, read-out: Vdss
Starred links: 1 amine or outer side, 2 acyl side, 3 side chain; linkers in the order of their positions; H or OH if unused. Non-standard residues stand in square brackets, D forms with d. Residues, ends and D or L forms follow the SMILES beside them. *: point of attachment. Benzenesulfonyl(4-Cl,3-CF3) = O=S(=O)(c1ccc(Cl)c(C(F)(F)F)c1)*; γGlu = O=C(O)[C@H](CCC(=O)[*:2])N[*:1]; 4Pal = N[C@@H](Cc1ccncc1)C(=O)O; Tle = CC(C)(C)[C@H](N)C(=O)O; β3hP = O=C(O)C[C@@H]1CCCN1
result.type: Vd (L/kg)

| molecule | result.type | quantitative.result |
| --- | --- | --- |
| CC(C)(C)[C@H](NC(=O)[C@H](Cc1ccncc1)NC(=O)CNC(=O)CC[C@H](NS(=O)(=O)c1ccc(Cl)c(C(F)(F)F)c1)C(=O)O)C(=O)N1CCC[C@H]1CC(N)=O ({Benzenesulfonyl(4-Cl,3-CF3)-γGlu}-G[4Pal][Tle][β3hP]-NH2) | Vd | 0.283 |

Origin of the recorded values: ChEMBL document CHEMBL5537178
